This collection of values is drawn from PubChem BioAssay AID1745844.

# Tested on: rodent lifetime carcinogenesis bioassay, tumor incidence TD50
# ASSAY_COMMENT: carcinogenic potency in animals, long-term in vivo studies, CPDB compilation (AID 1745844)
# CONDITION_SUMMARY: mouse; strain Swiss albino; males; by gavage; site: lung; lesion: several types; types named in the paper; dosed 53 weeks; study length 119 weeks
QUANTITY_KIND: TD50

# query: TD50 | item CC(C)C/C=N/N(C)C=O | system: rodent lifetime carcinogenesis bioassay, tumor incidence TD50 2.53 mg/kg/day

* * *

# System: rodent lifetime carcinogenesis bioassay, tumor incidence TD50
# ASSAY_COMMENT: carcinogenic potency in animals, long-term in vivo studies, CPDB compilation (AID 1745844)
# CONDITION_SUMMARY: rat; strain Fischer 344; males; inhaled; site: any site (literature study); lesion: several types; types named in the paper; dosed 103 weeks; study length 104 weeks
Active and inactive are the calls of the source. No rule for the calls is given here.
Give measured TD50 for each item. Keep answers brief.

These solved cases illustrate the format of a correct answer.
FC(F)=C(F)F: 35.4 mg/kg/day
CC1CO1 (centres undefined): 220 mg/kg/day
ClC(Cl)=C(Cl)Cl: 77.7 mg/kg/day

GET /values?readout=TD50&item= C=CC 15500 mg/kg/day (inactive)

* * *

# Tested on: rodent lifetime carcinogenesis bioassay, tumor incidence TD50
# ASSAY_COMMENT: carcinogenic potency in animals, long-term in vivo studies, CPDB compilation (AID 1745844)
# CONDITION_SUMMARY: mouse; strain B6C3F1; males; in feed; site: any site (literature study); lesion: several types; types named in the paper; dosed 78 weeks; study length 94 weeks
Calls of active or inactive are those of the source. The rule behind the calls is not given here.
QUANTITY_KIND: TD50

Cc1cc(N)ccc1N: 272 mg/kg/day (inactive)

Next up:
GET /values?readout=TD50&item= Nc1ccc(Cl)c(N)c1 7320 mg/kg/day (inactive)

* * *

# Tested on: rodent lifetime carcinogenesis bioassay, tumor incidence TD50
# ASSAY_COMMENT: carcinogenic potency in animals, long-term in vivo studies, CPDB compilation (AID 1745844)
# CONDITION_SUMMARY: mouse; strain ICR; males; in feed; site: liver; lesion: hepatocellular carcinoma; dosed 106 weeks; study length 106 weeks
QUANTITY_KIND: TD50 (mg/kg/day)
Give bare numbers, in mg/kg/day.

GET /values?readout=TD50&item= ClC1=C(Cl)C2(Cl)C3C(Cl)C(Cl)CC3C1(Cl)C2(Cl)Cl (stereo unspecified) 7.38

* * *

# Tested on: rodent lifetime carcinogenesis bioassay, tumor incidence TD50
# ASSAY_COMMENT: carcinogenic potency in animals, long-term in vivo studies, CPDB compilation (AID 1745844)
# CONDITION_SUMMARY: rat; strain Fischer 344; females; by gavage; site: mammary gland; lesion: adenocarcinoma + adenoma; dosed 91 weeks; study length 105 weeks
QUANTITY_KIND: TD50

# query: TD50 | item ClCC(Cl)CCl | system: rodent lifetime carcinogenesis bioassay, tumor incidence TD50 5.5 mg/kg/day

* * *

# System: rodent lifetime carcinogenesis bioassay, tumor incidence TD50
# ASSAY_COMMENT: carcinogenic potency in animals, long-term in vivo studies, CPDB compilation (AID 1745844)
# CONDITION_SUMMARY: rat; strain MRC; males; by gavage; site: liver; lesion: several types; types named in the paper; dosed 72 weeks; study length 80 weeks
QUANTITY_KIND: TD50

GET /values?readout=TD50&item= CC(=O)CN(CC(C)=O)N=O 0.989 mg/kg/day

* * *

# Test system: rodent lifetime carcinogenesis bioassay, tumor incidence TD50
# ASSAY_COMMENT: carcinogenic potency in animals, long-term in vivo studies, CPDB compilation (AID 1745844)
# CONDITION_SUMMARY: rat; strain Charles River CD (Sprague-Dawley); females; in feed; site: liver; lesion: hepatocellular adenoma; dosed 97 weeks; study length 105 weeks
QUANTITY_KIND: TD50

GET /values?readout=TD50&item= CCOCCc1c(-c2ccccc2)nc(N)n2ncnc12 307 mg/kg/day

* * *

# Tested on: rodent lifetime carcinogenesis bioassay, tumor incidence TD50
# ASSAY_COMMENT: carcinogenic potency in animals, long-term in vivo studies, CPDB compilation (AID 1745844)
# CONDITION_SUMMARY: mouse; strain B6C3F1; males; inhaled; site: heart; lesion: hemangiosarcoma; dosed 60 weeks; study length 60 weeks
QUANTITY_KIND: TD50

GET /values?readout=TD50&item= C=CC=C 96.7 mg/kg/day

* * *

# Test system: rodent lifetime carcinogenesis bioassay, tumor incidence TD50
# ASSAY_COMMENT: carcinogenic potency in animals, long-term in vivo studies, CPDB compilation (AID 1745844)
# CONDITION_SUMMARY: rat; strain Wistar; males; in feed; site: tongue; lesion: squamous-cell carcinoma; dosed 78 weeks; study length 78 weeks
QUANTITY_KIND: TD50 (mg/kg/day)
One number for each entry, in mg/kg/day.

# query: TD50 | item O=P(O)(OCC(Br)CBr)OCC(Br)CBr (stereo unspecified) | system: rodent lifetime carcinogenesis bioassay, tumor incidence TD50 56.1

* * *

# Tested on: rodent lifetime carcinogenesis bioassay, tumor incidence TD50
# ASSAY_COMMENT: carcinogenic potency in animals, long-term in vivo studies, CPDB compilation (AID 1745844)
# CONDITION_SUMMARY: mouse; strain B6C3F1; females; inhaled; site: any site (literature study); lesion: several types; types named in the paper; dosed 103 weeks; study length 104 weeks
Give measured TD50 for each item. Keep answers brief.
Give bare numbers, in mg/kg/day.

ClC(Cl)=C(Cl)Cl: 211
c1ccc2ccccc2c1: 128
CC1CO1 (centres undefined): 226

GET /values?readout=TD50&item= CCc1ccccc1 4070

* * *

# Test system: rodent lifetime carcinogenesis bioassay, tumor incidence TD50
# ASSAY_COMMENT: carcinogenic potency in animals, long-term in vivo studies, CPDB compilation (AID 1745844)
# CONDITION_SUMMARY: hamster; strain Syrian Golden; males; in drinking water; site: heart; lesion: angiosarcoma; dosed 71 weeks; study length 71 weeks
QUANTITY_KIND: TD50

# query: TD50 | item CNNC | system: rodent lifetime carcinogenesis bioassay, tumor incidence TD50 2.49 mg/kg/day

* * *

# System: rodent lifetime carcinogenesis bioassay, tumor incidence TD50
# ASSAY_COMMENT: carcinogenic potency in animals, long-term in vivo studies, CPDB compilation (AID 1745844)
# CONDITION_SUMMARY: rat; strain Fischer 344; males; by gavage; site: tongue; lesion: squamous-cell carcinoma; dosed 94 weeks; study length 104 weeks
Give measured TD50 for each item. Keep answers brief.

CC(C)=CCl: 469 mg/kg/day

Next up:
GET /values?readout=TD50&item= ClCC(Cl)CCl 34.7 mg/kg/day

* * *

# Tested on: rodent lifetime carcinogenesis bioassay, tumor incidence TD50
# ASSAY_COMMENT: carcinogenic potency in animals, long-term in vivo studies, CPDB compilation (AID 1745844)
# CONDITION_SUMMARY: rat; strain Fischer 344; females; by gavage; site: mammary gland; lesion: adenocarcinoma; dosed 30 weeks; study length 104 weeks
QUANTITY_KIND: TD50

GET /values?readout=TD50&item= C=CCN(N=O)C(N)=O 0.601 mg/kg/day

* * *

# System: rodent lifetime carcinogenesis bioassay, tumor incidence TD50
# ASSAY_COMMENT: carcinogenic potency in animals, long-term in vivo studies, CPDB compilation (AID 1745844)
# CONDITION_SUMMARY: rat; strain Fischer 344; males; in feed; site: thyroid gland; lesion: adenocarcinoma, NOS + follicular-cell carcinoma + papillary adenocarcinoma + papillary cystadenocarcinoma, NOS; dosed 78 weeks; study length 107 weeks
QUANTITY_KIND: TD50

GET /values?readout=TD50&item= COc1ccc(N)cc1N 192 mg/kg/day

* * *

# Tested on: rodent lifetime carcinogenesis bioassay, tumor incidence TD50
# ASSAY_COMMENT: carcinogenic potency in animals, long-term in vivo studies, CPDB compilation (AID 1745844)
# CONDITION_SUMMARY: mouse; strain B6C3F1; males; in feed; site: liver; lesion: hepatocellular adenoma + hepatocellular carcinoma + neoplastic nodule; dosed 101 weeks; study length 101 weeks
QUANTITY_KIND: TD50 (mg/kg/day)
Answers are plain numbers, in mg/kg/day.

GET /values?readout=TD50&item= Cc1cc(C)c(N)cc1C 14.4

* * *

# System: rodent lifetime carcinogenesis bioassay, tumor incidence TD50
# ASSAY_COMMENT: carcinogenic potency in animals, long-term in vivo studies, CPDB compilation (AID 1745844)
# CONDITION_SUMMARY: mouse; strain B6C3F1; females; in feed; site: thyroid gland; lesion: c-cell carcinoma; dosed 103 weeks; study length 105 weeks
QUANTITY_KIND: TD50

GET /values?readout=TD50&item= Nc1cccc2c(N)cccc12 1320 mg/kg/day

* * *

# System: rodent lifetime carcinogenesis bioassay, tumor incidence TD50
# ASSAY_COMMENT: carcinogenic potency in animals, long-term in vivo studies, CPDB compilation (AID 1745844)
# CONDITION_SUMMARY: mouse; strain Swiss albino; females; in drinking water; site: lung; lesion: several types; types named in the paper; dosed 80 weeks; study length 80 weeks
QUANTITY_KIND: TD50

GET /values?readout=TD50&item= NNC(=O)c1ccncc1 153 mg/kg/day
